target: human α-Glc (Homo sapiens, UniProt P10253)
parameter: IC50 (µM)
Express it in µM; write the number only.

**Query** Entry Cc1ccc(Sc2cccc3nc(N)nc(N)c23)cc1 , system human α-Glc (Homo sapiens, UniProt P10253): what IC50 was measured?
**Result** 1300

====

Each entry below lists one item and its recorded pIC50 value.
Molecular target: human β-Gal (Homo sapiens)
Sequence (P16278 29-677): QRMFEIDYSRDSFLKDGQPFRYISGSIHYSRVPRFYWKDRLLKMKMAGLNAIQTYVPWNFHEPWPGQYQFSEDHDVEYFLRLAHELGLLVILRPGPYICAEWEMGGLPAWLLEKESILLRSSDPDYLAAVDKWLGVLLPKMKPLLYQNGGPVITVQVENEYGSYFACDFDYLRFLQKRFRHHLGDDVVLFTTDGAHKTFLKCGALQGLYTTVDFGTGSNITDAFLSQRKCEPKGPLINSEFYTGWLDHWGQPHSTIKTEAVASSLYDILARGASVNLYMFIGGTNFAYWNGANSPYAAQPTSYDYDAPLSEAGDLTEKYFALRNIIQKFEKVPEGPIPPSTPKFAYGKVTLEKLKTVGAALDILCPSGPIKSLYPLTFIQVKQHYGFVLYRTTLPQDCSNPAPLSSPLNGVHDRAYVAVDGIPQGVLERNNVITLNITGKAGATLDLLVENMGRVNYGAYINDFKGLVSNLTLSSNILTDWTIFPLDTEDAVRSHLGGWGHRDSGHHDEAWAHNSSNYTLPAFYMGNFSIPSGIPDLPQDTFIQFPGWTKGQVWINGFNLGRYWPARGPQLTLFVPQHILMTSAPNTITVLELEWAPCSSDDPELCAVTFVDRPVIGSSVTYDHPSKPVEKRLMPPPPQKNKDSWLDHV
Remember the convention: pIC50 equals -log10 of concentration in molar.

[[record]]
compound = "OC[C@H]1CNC[C@@H](O)[C@@H]1O [IFG, isofagomine, reference compound]"
measured_on = "human β-Gal (Homo sapiens)"
assay_value = 3.74


In the following, a different compound is considered.
**Query** pIC50 lookup needed for Cc1ccc(Sc2cccc3nc(N)nc(N)c23)cc1 , thanks.
**Result** 3.24
